experiment: Permeability of the compound at pH 7.4 by PAMPA assay; type: ADME; conditions: read-out: permeability
value-kind: Papp (×10⁻⁶ cm/s)
Numbers only, in ×10⁻⁶ cm/s.

INSERT INTO measurements (smiles_data, reported_result) VALUES
  ('Cc1c([C@H](OC(C)(C)C)C(=O)O)c(N2CCC(C)(C)CC2)c(-c2ccc(OCCc3ccc(F)cc3)cc2)c2ncnn12', 65.4),
  ('Cc1cn2c(C)c([C@H](OC(C)(C)C)C(=O)O)c(N3CCC(C)(C)CC3)c(-c3ccc(OCCc4ccc(F)cc4)cc3)c2n1', 43.8);

Now take the following compound into account.
// sample "Cc1nc2c(-c3ccc4c(c3)CCN(Cc3c(C)cccc3Cl)C4)c(N3CCC(C)(C)CC3)c([C@H](OC(C)(C)C)C(=O)O)c(C)n2n1" , its Papp was 48.3
